pIC50 for assorted compounds
Biological target: HIV-1 IN-IN subunit exchange (Human immunodeficiency virus type 1 group M subtype B, UniProt P12497)
Construct: Preparation of recombinant full-length IN and LEDGF proteins; made in house; host or cells: E. coli BL21(DE3)
Experiment: HTRF-based IN subunit exchange assay
Format: binding
Description: Proteins were expressed in E. coli BL21(DE3). Briefly, His-IN was purified by loading the precipitate of cell lysate onto a Ni-Sepharose column and eluting with a […] imidazole gradient (0–500 mM) in a HEPES buffer (50 mM, pH 7.5) containing NaCl (1 M), CHAPS (7.5 mM), and β-mercaptoethanol (2 mM). […]
pIC50: −log10 of the molar value.
Readout name: pIC50

# Compound, Readout name, Comparison symbol, Numeric value
data = [
    ("N#Cc1ccc(-c2csc(NN=C3C(=O)Nc4ccccc43)n2)cc1 [RMNC6, reference compound]", "pIC50", "<", 4.00),
    ("Cc1ccc(-c2csc(N/N=C3\\C(=O)Nc4ccc([N+](=O)[O-])cc43)n2)cc1 [10a]", "pIC50", "=", 4.94),
    ("O=C1Nc2ccc(Cl)cc2/C1=N/Nc1nc(-c2ccc(Cl)c(Cl)c2)cs1", "pIC50", "<", 4.00),
    ("O=C1Nc2ccc([N+](=O)[O-])cc2/C1=N/Nc1nc(-c2ccc(Cl)cc2)cs1", "pIC50", "=", 4.64),
    ("O=C1Nc2ccc([N+](=O)[O-])cc2/C1=N/Nc1nc(-c2ccc(Br)cc2)cs1", "pIC50", "=", 4.73),
]
